Listed here are compounds together with their documented inhibition.
measured.on: Neuronal acetylcholine receptor subunit alpha-7 (Rattus norvegicus) (UniProt Q05941)
Sequence (Q05941 whole entry): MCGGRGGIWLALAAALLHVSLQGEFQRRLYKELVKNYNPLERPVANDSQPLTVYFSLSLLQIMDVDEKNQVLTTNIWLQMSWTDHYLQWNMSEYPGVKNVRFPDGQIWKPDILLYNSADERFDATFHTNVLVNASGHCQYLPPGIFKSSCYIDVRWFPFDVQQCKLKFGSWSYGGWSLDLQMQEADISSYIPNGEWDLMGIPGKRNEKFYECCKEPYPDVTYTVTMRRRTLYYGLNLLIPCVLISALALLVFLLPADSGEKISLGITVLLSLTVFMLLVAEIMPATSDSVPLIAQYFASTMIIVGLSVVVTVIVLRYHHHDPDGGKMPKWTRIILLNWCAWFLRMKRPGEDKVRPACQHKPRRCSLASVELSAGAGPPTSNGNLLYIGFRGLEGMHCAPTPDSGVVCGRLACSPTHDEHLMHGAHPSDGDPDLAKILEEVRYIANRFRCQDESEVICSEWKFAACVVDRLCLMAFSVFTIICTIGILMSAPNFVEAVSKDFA
assay.details: Antagonist activity at rat alpha-7 nicotinic acetylcholine receptor expressed in Xenopus oocytes assessed as inhibition of nicotine-induced current amplitudes at IC50 for acetylcholine-induced currents preincubated for 10 mins followed by nicotine induction by two-electrode voltage-clamp electrophysiology assay relative to control
Assay type: cell-based
Quick note: give the figure in %, leave out the unit.

# annotated cases, reported inhibition shown
COc1cc(N)c(Cl)cc1C(=O)NC1CN2CCC1CC2 (centres undefined) [ZACOPRIDE]    4.37
O=C(N[C@@H]1C[N+]2(CCl)CCC1CC2)c1ccccc1F    33.2
O=C(NC1CN2CCC1CC2)c1ccccc1F (centres undefined)    26.5

Shifting focus to the compound that follows.
Prompt: Entry O=C(N[C@H]1C[N+]2(CCl)CCC1CC2)c1ccccc1F , system Neuronal acetylcholine receptor subunit alpha-7 (Rattus norvegicus) (UniProt Q05941): what inhibition was measured?
Response: 65.7
